# Lookup of reported self-splicing fitness (ln) keyed by entry
# assay.explanation: self-splicing fitness, log relative to wild type (ln ratio); higher = more splicing; Tetrahymena group I intron in knt gene, E. coli kanamycin selection, DiMSum; sequences stand for … in CUCUCU…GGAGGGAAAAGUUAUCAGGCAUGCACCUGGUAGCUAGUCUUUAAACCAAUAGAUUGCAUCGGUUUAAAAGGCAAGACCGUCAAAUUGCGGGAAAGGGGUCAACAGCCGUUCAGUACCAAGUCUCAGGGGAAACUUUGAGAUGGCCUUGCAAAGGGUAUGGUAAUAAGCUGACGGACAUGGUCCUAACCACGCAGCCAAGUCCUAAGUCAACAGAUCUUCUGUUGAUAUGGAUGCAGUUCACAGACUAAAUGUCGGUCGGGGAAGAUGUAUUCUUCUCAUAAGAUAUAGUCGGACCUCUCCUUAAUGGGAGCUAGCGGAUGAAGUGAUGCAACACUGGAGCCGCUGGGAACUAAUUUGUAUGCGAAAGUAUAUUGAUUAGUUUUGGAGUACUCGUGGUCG;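 note: selection with 25 µg/mL kanamycin versus none on LB agar overnight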
# test.settings: 30 °C
Lab note: record the figure alone, no unit after it.

macromolecule.sequence | self-splicing fitness (ln)
GAUUAGCAAUAUUACGAGAU | -3.12

Measured self-splicing fitness (ln) of ACGCAGCAAUAUUACGGAUG : -3.06

Measured self-splicing fitness (ln) of CUUCAGCAAUAUUACGGACG : -0.00287

Measured self-splicing fitness (ln) of AGCAAGCAAUAUUACGACAA : -1.54

Measured self-splicing fitness (ln) of CGGGAGCAAUAUUACGUGGA : -2.06

Measured self-splicing fitness (ln) of GGACAGCAAUAUUACGUCUU : -3.29
